Form field: absorption maximum (one value per entry).
- measurement_notes: solvent given as SMILES
- assay_conditions: in C1CCOC1
Use nm as the unit, but write only the number.

Here's what some known entries look like.
COc1cc2c(cc1-c1ccc(C(F)(F)F)cc1)Cc1c3c(c4c(c1-2)-c1cc(OC)c(-c2ccc(C(F)(F)F)cc2)cc1C4)C(=O)N(CCC(C)C)C3=O | 404
O=Cc1ccc2ccc3cccc4ccc1c2c34 | 391
CCN1c2ccccc2Sc2cc(/C=C(\C#N)c3ccccc3)ccc21 | 411

Problem: Indicate the recorded absorption maximum value for this compound: COc1ccc2c(=O)c3c([nH]c2c1)-c1cc(Cl)ccc1NC3(C)C
Solution: 411

Problem: Fill in reported absorption maximum for this entry: CCOC(=O)c1csc2[n+]1[B-](F)(F)OC(c1ccc(N(C)C)cc1)=N2
Solution: 404

Problem: Kindly indicate its recorded absorption maximum. Item: N#Cc1c(N2CCCCC2)cc(-c2cccc3ccccc23)c2c1-c1ccccc1C2=O
Solution: 390

====

- measurement_notes: solvent given as SMILES
- assay_conditions: in CS(C)=O
Listed below: absorption maximum values for each entry.
Report as a plain number; the unit nm is understood.

CCCCN1/C(=C/C=C/C2=[N+](C)c3ccccc3C2(C)C)C(C)(C)c2c1ccc1ccccc21 | 572
COc1cc2sc3nc(-c4ccccc4OC)sc3c2cc1OC | 365
CCN(CC)c1ccc2c(c1)oc(=O)c1c(=O)oc3c(C)c4oc(=O)c5c(=O)oc6cc(N(CC)CC)ccc6c5c4cc3c12 | 463
CN1/C(=C/C=C(/C=C/C2=[N+](C)c3ccccc3C2(C)C)c2ccc(C(F)(F)F)cc2)C(C)(C)c2ccccc21 | 643
CCCCCCN(c1ccccc1)c1ccc(/C=C/c2cc(=O)oc3cc(C)ccc23)cc1 | 432

Problem: Provide one value: measured absorption maximum of Cc1ccc2nc(-c3cc(-c4nc5ccc(C)cc5[nH]4)cc(-c4nc5ccc(C)cc5[nH]4)c3)[nH]c2c1
Solution: 322.8

Problem: Please indicate absorption maximum recorded for CCC1=C(C)C2=C(C)c3c(C)c(-c4csc(N5CCOCC5)n4)c(C)n3[B-](F)(F)[N+]2=C1C
Solution: 521

Problem: Check the records and state absorption maximum for CCN(CC)c1ccc2cc(/C=C/C3=C4CC/C(=C\c5cc6ccc(N(CC)CC)cc6oc5=O)C4=[O+][B-](F)(F)O3)c(=O)oc2c1
Solution: 690

Problem: Give absorption maximum for C#CCn1c2ccccc2c2cc(/C=C/C3=[N+]4C(=C(c5ccc(I)cc5)c5c(C)c(Cl)c(/C=C/c6ccc7c(c6)c6ccccc6n7CC#C)n5[B-]4(F)F)C(C)=C3Cl)ccc21
Solution: 705

Problem: Provide one value: measured absorption maximum of Cc1ccc(/C=N/c2cc(C(C)C)c(O)cc2C)cc1
Solution: 348

Problem: Read the entry CCN(CC)c1ccc2cc(/C=C(\C#N)c3nc4ccccc4o3)c(=O)oc2c1 and write its reported absorption maximum.
Solution: 519

Problem: State its absorption maximum: CC[n+]1c(/C=C/c2c([O-])ccc3ccc(=O)oc23)sc2ccccc21
Solution: 581.28

Problem: Hello, please tell me recorded absorption maximum for this one: CC(=O)Nc1ccc(S(=O)(=O)O)c(/N=N/c2c(O)c3ccccc3n(C)c2=O)c1
Solution: 428

Problem: Consider the molecule C/C(=N\Nc1ccc(C#N)cc1)c1cccc(/C(C)=N/Nc2ccc(C#N)cc2)c1 . State its measured absorption maximum.
Solution: 366

Problem: For the molecule COC(=O)c1cc(=O)n(C)c2cc(-c3ccc(OC)cc3)sc12 , report absorption maximum.
Solution: 404

Problem: Output measured absorption maximum for this item: CCCCCCCCN1c2ccc(C#Cc3ccc(OC)cc3)cc2Sc2cc(C=O)ccc21
Solution: 383.45

Problem: # return recorded absorption maximum for entry O=c1oc2ccccc2c2c1c(=O)oc1cc(O)ccc12
Solution: 376

Problem: Return absorption maximum for the following molecule: COc1ccc2c(=O)c3c([nH]c2c1)-c1cc(Cl)ccc1NC3(C)C
Solution: 426

====

- measurement_notes: solvent given as SMILES
- assay_conditions: in CCO
assay_readout: absorption maximum
Note: a bare number is incomplete; add the unit.

In the examples that follow, each entry is paired with its recorded absorption maximum.
NS(=O)(=O)c1ccc(N2N=C(c3ccc(O)cc3)CC2c2ccc([N+](=O)[O-])cc2)cc1 (stereo unspecified) | 352 nm
CCN(CC)c1ccc2c(-c3ccc(S(=O)(=O)[O-])cc3S(=O)(=O)[O-])c3ccc(=[N+](CC)CC)cc-3oc2c1 | 552 nm
CCOc1ccc2c(-c3nc(-c4ccccc4)no3)cc(=O)oc2c1 | 388 nm
CC1=N/C(=C\c2ccncc2)C(=O)N1C | 351 nm
CN(C)c1cc2c(cc1F)c(=O)c1cc(F)c(N)cc1n2C | 369 nm
CN(C)c1ccc2c(-c3ccc(Br)cc3)c3ccc(=[N+](C)C)cc-3oc2c1 | 556 nm
CC(C)=CCN1C(=O)c2cccc3c2c(cc2oc(C)nc23)C1=O | 362 nm
c1ccc2cc(-n3cnc4ccccc43)ccc2c1 | 277 nm
O=C(O)c1c2ccccc2nc2ccccc12 | 369 nm
Nc1ccc2c(c1)Cc1ccccc1-2 | 317 nm

Note: attention shifts to another entry.
Problem: Entry CCCCOc1c(C=C2Sc3ccccc3N2C)c(=O)c1=O needs its absorption maximum filled in; supply it.
Solution: 442 nm

====

- measurement_notes: solvent given as SMILES
- assay_conditions: in CO
Each entry gets no (0) if its absorption maximum stays under 400 nm, and yes (1) if its absorption maximum is 400 nm or above.

Solved cases (3 shown):
C/C(=N\Nc1ccc(C#N)cc1)c1cccc(/C(C)=N/Nc2ccc(C#N)cc2)c1 | no (0)
Oc1ccc(-c2nc(-c3ccccc3)c(-c3ccccc3)[nH]2)cc1 | no (0)
CN(C)c1ccc(C#Cc2ccc3ccc4c(C#Cc5ccc(N(C)C)cc5)ccc5ccc2c3c54)cc1 | yes (1)

Problem: Check the entry CCN(CC)/C(C)=N\c1ccc2c3c(cccc13)C(=O)c1ccccc1-2 : does absorption maximum equal or exceed 400 nm?
Solution: yes (1)

Problem: Decide: absorption maximum of Nc1cc2ccc3cccc4ccc(c1)c2c34 >= 400 nm?
Solution: no (0)

====

- measurement_notes: solvent given as SMILES
- assay_conditions: in CO
Quick list: absorption maximum per entry.
# value in nm; strip the unit string

Problem: Supply measured absorption maximum of CC[n+]1c(C=C2C(=O)C(C=C3N(C)c4ccc(Cl)cc4C3(C)C)=C2[O-])[se]c2ccccc21 in your reply.
Solution: 644

Problem: Please report the measured absorption maximum for O=C1C=C(Nc2ccccc2)CCC1
Solution: 305

Problem: Write down absorption maximum measured for item CC(C)c1ccc2ccc3cccc4ccc1c2c34
Solution: 337

Problem: Provide measured absorption maximum value, entry: COc1ccc(-c2c(-c3ccc(OC)cc3)c3c4c(cccc4c2-c2ccccc2)C(=O)c2ccccc2-3)cc1
Solution: 407

====

absorption maximum: recorded values
- measurement_notes: solvent given as SMILES
- assay_conditions: in CC#N
// return numeric value only (unit: nm, not printed)

O=c1ccc2ccc(C#Cc3ccccc3)cc2o1 | 300
F[B-]1(F)n2c(-c3ccccc3)cnc2-c2cccc[n+]21 | 384
O=Cc1ccc(-c2ccc(C3=CCC(c4ccccc4)CC3)s2)s1 (configuration not stated) | 385
Cc1ccc(-c2ccc(/C=C/c3ccc(F)cc3)cn2)nc1 | 334
c1ccc(-c2nn(-c3ccccc3)c3nc4ccc(-n5c6ccccc6c6ccccc65)cc4cc23)cc1 | 411.02
COc1ccc(-c2nc3c([nH]2)=C2C=C(Cl)S[C@@]2(C)[C@]2(C)SC(Cl)=CC=32)cc1 | 295
COc1cccc2c1-c1ccccc1C2=O | 432
CCOC(=O)c1csc2[n+]1[B-](F)(F)OC(c1ccc(N(C)C)cc1)=N2 | 405

Problem: Query absorption maximum for Cc1cc(O)c(C(=O)/C=C/c2cccc(O)c2)c(=O)o1
Solution: 367

Problem: Using the record for Fc1nc(F)c(F)c(C#Cc2ccccc2C#Cc2c(F)c(F)nc(F)c2F)c1F , state its measured absorption maximum.
Solution: 300

Problem: Look up and report measured absorption maximum for this entry: CCCCCCCCCCCCCCCCCCN1C(=O)c2cccc3c(OCCN(C)C)ccc(c23)C1=O
Solution: 363

====

- measurement_notes: solvent given as SMILES
- assay_conditions: in C1CCCCC1
Binarize absorption maximum at 400 nm; below is rule met, at or above is rule not met.

Some solved entries appear below for comparison.
COC(=O)c1noc(-c2ccccc2)c1Br | rule met
[BH3-][P+]1(c2ccccc2)c2ccccc2-c2sc3ccccc3c21 (configuration not stated) | rule met
CN(C)c1ccc(/C=C(\C#N)c2nc3ccccc3s2)cc1 | rule not met

Problem: For this compound, is absorption maximum lower than 400 nm? Cc1ccc(/C=N/c2cc(C(C)C)c(O)cc2C)cc1
Solution: rule met

Problem: # check: absorption maximum < 400 nm for c1cc2ccc1CCCc1ccc(c3nsnc13)CCC2
Solution: rule met

Problem: Strictly below 400 nm in absorption maximum? CN(C)c1ccc2c(c1)C(=O)c1ccccc1-2
Solution: rule not met
